test: qHTS assay for identifying genotoxic compounds that show differential cytotoxicity against isogenic chicken DT40 cell lines with known DNA damage response pathways - Rev3 mutant cell line (AID 743014); conditions: chicken DT40 Rev3-/- viability, CellTiter-Glo, 40 h; series mostly up to 68.4 µM; further: nearly all actives have a fitted effect of over 55% in size
Inconclusive results are not listed. The source made the active and inactive calls. The call rests on the fitted dose curve; in most records, active means well fitted cell-killing curve with a large enough effect in the repeat runs; inconclusive means weak or mixed curves, or effect the other way; inactive means no such curve, though single readings can be large or run the other way.
The categories you may choose from are Y (active), N (inactive)

Consider the following illustrative entries.
>  <compound>
O=C(O)C1CCCN1 (stereo not drawn)

>  <qualitative_label>
N

$$$$
>  <compound>
CC(C)C[C@H](NC(=O)[C@@H](Cc1c[nH]c2ccccc12)NC(=O)[C@H](Cc1ccc(O)cc1)NC(=O)[C@H](CO)NC(=O)[C@H](Cc1c[nH]c2ccccc12)NC(=O)[C@H](Cc1cnc[nH]1)NC(=O)[C@@H]1CCC(=O)N1)C(=O)N[C@@H](CCCN=C(N)N)C(=O)N1CCC[C@@H]1C(=O)NCC(N)=O

>  <qualitative_label>
N

$$$$
>  <compound>
CS(=O)(=O)Nc1cc2occ(NC=O)c(=O)c2cc1Oc1ccccc1

>  <qualitative_label>
N

$$$$
>  <compound>
CO[C@H]1C[C@@H]2CC[C@@H](C)[C@@](O)(O2)C(=O)C(=O)N2CCCC[C@H]2C(=O)O[C@H]([C@H](C)C[C@@H]2CC[C@@H](OCCO)[C@H](OC)C2)CC(=O)[C@H](C)/C=C(\C)[C@@H](O)[C@@H](OC)C(=O)[C@H](C)C[C@H](C)/C=C/C=C/C=C/1C

>  <qualitative_label>
Y

$$$$

// param item: O=C(O)c1ccc(NC(=O)[C@H](Cc2ccc(O)cc2)NC(=O)c2ccccc2)cc1 ; yields the recorded call
N

// param item: NC(Cc1ccccc1)C(=O)O (stereo not drawn) ; yields the recorded call
N

// param item: FCOC(C(F)(F)F)C(F)(F)F ; yields the recorded call
N

// param item: CC(CN1c2ccccc2Sc2ccc(S(=O)(=O)N(C)C)cc21)N(C)C (stereo not drawn) ; yields the recorded call
Y
